Origin of measurements: paper PMC5496928

- Tested On: EGFR (L858R, T790M) (Homo sapiens, UniProt P00533, L858R/T790M)
- Construct: purchased DiscoverX
- Sequence (P00533 25-1210 T790M/L858R): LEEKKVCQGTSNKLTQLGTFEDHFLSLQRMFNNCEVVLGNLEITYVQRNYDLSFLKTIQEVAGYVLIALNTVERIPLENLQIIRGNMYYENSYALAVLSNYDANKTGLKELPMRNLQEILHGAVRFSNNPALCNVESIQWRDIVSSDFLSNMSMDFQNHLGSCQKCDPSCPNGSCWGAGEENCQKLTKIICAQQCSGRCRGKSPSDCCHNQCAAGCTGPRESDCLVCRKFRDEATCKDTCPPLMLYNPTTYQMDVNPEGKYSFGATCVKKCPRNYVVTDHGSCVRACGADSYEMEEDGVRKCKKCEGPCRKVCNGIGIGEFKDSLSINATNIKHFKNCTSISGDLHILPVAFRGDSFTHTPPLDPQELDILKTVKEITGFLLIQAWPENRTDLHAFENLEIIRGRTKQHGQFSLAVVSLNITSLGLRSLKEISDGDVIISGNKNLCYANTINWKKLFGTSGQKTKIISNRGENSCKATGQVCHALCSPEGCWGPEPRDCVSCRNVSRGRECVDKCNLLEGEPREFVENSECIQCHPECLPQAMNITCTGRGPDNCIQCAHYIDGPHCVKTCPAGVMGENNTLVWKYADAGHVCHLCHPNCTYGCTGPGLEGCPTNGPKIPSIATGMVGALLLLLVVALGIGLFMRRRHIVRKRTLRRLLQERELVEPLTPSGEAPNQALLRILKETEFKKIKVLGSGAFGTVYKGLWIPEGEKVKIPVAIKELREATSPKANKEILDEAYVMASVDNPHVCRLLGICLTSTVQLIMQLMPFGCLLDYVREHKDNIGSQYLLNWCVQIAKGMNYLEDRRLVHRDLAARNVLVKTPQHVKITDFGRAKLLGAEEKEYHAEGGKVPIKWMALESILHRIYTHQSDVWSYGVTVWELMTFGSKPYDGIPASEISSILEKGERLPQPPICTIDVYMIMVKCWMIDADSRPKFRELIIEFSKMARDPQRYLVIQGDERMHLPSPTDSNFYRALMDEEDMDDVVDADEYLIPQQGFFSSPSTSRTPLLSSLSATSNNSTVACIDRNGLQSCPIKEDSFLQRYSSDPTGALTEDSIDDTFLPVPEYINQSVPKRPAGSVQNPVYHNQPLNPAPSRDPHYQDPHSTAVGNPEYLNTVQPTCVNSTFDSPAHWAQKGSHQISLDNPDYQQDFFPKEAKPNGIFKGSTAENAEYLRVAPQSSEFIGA
- Assay Explanation: scanKINETIC binding kinetics assay (DiscoverX)
- Applied Conditions: Apparent Kd, EGFR LR+TM (30× dilution), 30× dilution after 1 h incubation
Experimental Readout: Kd (nM)

[A] C=CC(=O)NCc1cccc(Nc2ncc(Cl)c(Nc3ccccc3)n2)c1 [compound 2b]
[B] C=CC(=O)Nc1cccc(Nc2ncc(Cl)c(Nc3ccccc3)n2)c1 [compound 2a]
Looking only at measured Kd, which entry is lower, A or B ? Lab log: write the label of the selected item as the result.
B

###

- Tested On: EGFR (L858R, T790M) (Homo sapiens, UniProt P00533, L858R/T790M)
- Construct: purchased DiscoverX
- Assay Explanation: scanKINETIC binding kinetics assay (DiscoverX)
- Applied Conditions: Kd, EGFR LR+TM (6 h), scanKINETIC; 6 h incubation
pKd: −log10 of the molar value.
Experimental Readout: pKd

[1] C=CC(=O)NCc1cccc(Nc2ncc(Cl)c(Nc3ccccc3)n2)c1 [compound 2b]
[2] C=CC(=O)Nc1cccc(Nc2nc(Nc3ccccc3)ncc2Cl)c1 [compound 1]
[3] C=CC(=O)Nc1cccc(Nc2ncc(Cl)c(Nc3ccccc3)n2)c1 [compound 2a]
Highest pKd first, then in falling order down to the smallest. Sort the labels as requested; that list is your answer.
2, 3, 1
(2: 8.49, 3: 8.10, 1: 7.00)

###

- Tested On: EGFR (L858R, T790M) (Homo sapiens, UniProt P00533, L858R/T790M)
- Construct: purchased DiscoverX
- Assay Explanation: scanKINETIC binding kinetics assay (DiscoverX)
- Applied Conditions: Kd, EGFR LR+TM (1 h), scanKINETIC; 1 h incubation
pKd: −log10 of the molar value.
Experimental Readout: pKd

Reported pKd, compound C=CC(=O)Nc1cccc(Nc2ncc(Cl)c(Nc3ccccc3)n2)c1 : ____
7.25

[1] C=CC(=O)NCc1cccc(Nc2ncc(Cl)c(Nc3ccccc3)n2)c1
[2] C=CC(=O)Nc1cccc(Nc2nc(Nc3ccccc3)ncc2Cl)c1
Which record shows the lower pKd: the first, 1 , or the second, 2 ? I would appreciate it if you answered with the label of your choice.
1
(1: 7.24, 2: 7.60)

###

Record type: Kd measurement. Applies to: UniProt P08581
Sequence (P08581 25-1390): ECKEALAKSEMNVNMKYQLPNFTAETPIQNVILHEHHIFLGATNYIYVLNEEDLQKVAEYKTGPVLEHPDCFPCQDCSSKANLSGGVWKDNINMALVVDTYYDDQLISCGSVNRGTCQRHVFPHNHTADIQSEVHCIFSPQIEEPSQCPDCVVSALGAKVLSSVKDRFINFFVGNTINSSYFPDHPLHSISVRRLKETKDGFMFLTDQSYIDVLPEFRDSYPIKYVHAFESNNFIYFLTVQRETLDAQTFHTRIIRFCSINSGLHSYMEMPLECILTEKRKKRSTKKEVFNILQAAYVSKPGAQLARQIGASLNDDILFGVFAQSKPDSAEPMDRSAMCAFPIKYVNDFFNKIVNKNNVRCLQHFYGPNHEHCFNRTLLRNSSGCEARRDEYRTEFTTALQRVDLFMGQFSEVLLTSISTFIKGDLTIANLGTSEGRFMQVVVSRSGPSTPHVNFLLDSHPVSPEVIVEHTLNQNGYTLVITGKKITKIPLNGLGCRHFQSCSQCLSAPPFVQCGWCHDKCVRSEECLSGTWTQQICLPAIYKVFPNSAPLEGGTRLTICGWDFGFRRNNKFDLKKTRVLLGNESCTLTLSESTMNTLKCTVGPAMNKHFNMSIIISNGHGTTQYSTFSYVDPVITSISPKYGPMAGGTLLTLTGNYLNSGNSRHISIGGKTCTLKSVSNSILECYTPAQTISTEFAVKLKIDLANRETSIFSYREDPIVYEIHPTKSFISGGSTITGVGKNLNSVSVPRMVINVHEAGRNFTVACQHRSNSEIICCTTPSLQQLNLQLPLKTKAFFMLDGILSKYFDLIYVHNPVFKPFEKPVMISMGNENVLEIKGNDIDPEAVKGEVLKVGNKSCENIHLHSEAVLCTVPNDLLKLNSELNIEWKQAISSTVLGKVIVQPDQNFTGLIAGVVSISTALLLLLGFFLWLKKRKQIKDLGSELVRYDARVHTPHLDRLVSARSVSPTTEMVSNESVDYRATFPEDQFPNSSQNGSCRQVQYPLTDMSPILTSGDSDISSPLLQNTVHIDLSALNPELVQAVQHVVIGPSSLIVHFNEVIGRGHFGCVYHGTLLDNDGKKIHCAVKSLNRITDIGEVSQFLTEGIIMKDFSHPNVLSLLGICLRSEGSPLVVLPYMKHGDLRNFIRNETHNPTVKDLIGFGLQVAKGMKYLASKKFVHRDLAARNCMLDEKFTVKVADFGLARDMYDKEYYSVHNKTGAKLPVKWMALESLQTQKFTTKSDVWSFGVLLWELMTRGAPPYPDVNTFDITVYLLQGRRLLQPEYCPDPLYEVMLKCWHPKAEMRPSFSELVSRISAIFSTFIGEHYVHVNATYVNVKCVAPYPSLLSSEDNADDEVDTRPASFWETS
Experimental Readout: Kd (µM)

Fill in the recorded Kd for this compound, with UniProt P08581 as test system: C=CC(=O)NCc1cccc(Nc2ncc(Cl)c(Nc3ccccc3)n2)c1
0.33

Notebook entry, UniProt P08581 assay: Kd of C=CC(=O)Nc1cccc(Nc2ncc(Cl)c(Nc3ccccc3)n2)c1 = ?
0.25

###

- Tested On: EGFR (L858R, T790M) (Homo sapiens, UniProt P00533, L858R/T790M)
- Construct: purchased DiscoverX
- Assay Explanation: KdELECT binding assay (DiscoverX)
- Applied Conditions: read-out: Kd study, EGFR LR+TM
- Text: Tests of the compounds confirm suitability for ALK + MET + EGFR polypharmacology optimization (Table 1). […] For compound 1, ^3 with the acrylamide function at the site corresponding to that of WZ4002, both ALK and MET binding were inhibited more weakly compared to EGFR binding. […] The sensitivity to the assay conditions seen for both forms of EGFR and uniformly tighter binding under the new assay conditions may indicate tighter binding for ALK and MET under these altered assay conditions as well. […]
pKd: −log10 of the molar value.
Experimental Readout: pKd

# input compound: C=CC(=O)Nc1cccc(Nc2nc(Nc3ccccc3)ncc2Cl)c1 [compound 1] ; wanted: its pKd
6.96

[a] C=CC(=O)NCc1cccc(Nc2ncc(Cl)c(Nc3ccccc3)n2)c1 [compound 2b]
[b] C=CC(=O)Nc1cccc(Nc2ncc(Cl)c(Nc3ccccc3)n2)c1 [compound 2a]
Field: lower recorded pKd (choose a or b ) Identify your pick by its label.
a
(a: 6.57, b: 6.96)
